Target: MSI1 full-length (mouse, UniProt Q61474 1-362)
Sequence (Q61474 whole entry): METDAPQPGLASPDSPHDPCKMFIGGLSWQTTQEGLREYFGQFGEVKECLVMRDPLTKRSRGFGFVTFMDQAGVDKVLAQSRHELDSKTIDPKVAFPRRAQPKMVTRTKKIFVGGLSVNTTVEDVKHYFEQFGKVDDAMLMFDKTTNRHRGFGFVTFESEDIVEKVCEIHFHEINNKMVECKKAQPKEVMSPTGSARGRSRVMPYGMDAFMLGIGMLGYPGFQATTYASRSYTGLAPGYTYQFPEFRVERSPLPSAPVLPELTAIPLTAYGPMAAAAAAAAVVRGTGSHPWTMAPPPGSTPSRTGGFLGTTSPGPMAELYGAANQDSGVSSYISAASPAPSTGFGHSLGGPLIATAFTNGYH
Assay: nsRBNS (natural sequence RNA bind-n-seq); RBNS binding buffer (assumed for nsRBNS): 25 mM Tris pH 7.5, 150 mM KCl, 3 mM MgCl2, 0.01% Triton X-100, 500 ug/ml BSA, 20 U/ml SUPERase-In, 4 C; UNK is unkempt and MSI1 is Musashi-1; names of the RNAs are library labels; protein concentration not given here; high values mean tight binding
The full ranking holds about 5,800 sequences; the median of “enrichment r” is about 0.54, and the highest 2% start at about 16. What follows is part of a selection rich in the highest values, with near analogues and random picks from the rest.
Lab note: anything with binding signal below 4 enrichment R is marked 1; values at 4 enrichment R or higher are marked 0.

Worked cases, answers included:
1) chr11:101890673:101891278:-|three_prime_utr|ENSG00000187151|control|control|control (ssRNA) RNA: GGGAGUUCUACAGUCCGACGAUCGUAAUGCAAGUUCUACAAUGAUAAUAUAUUAAAGAUUUUUAAAAGUUUAUCUUUUCACUUAGUGUUUCAAACAUAUUAGGCAAAAUUUAACUGUAGAUGGCAUUUAGAUGUUAUGAGUUUCAACAGAGGAUUGAGCAUCA
1
2) chr2:99394746:99394872:+|CDS|ENSG00000158417|unk|FALSE|unique (ssRNA) RNA: GGGAGUUCUACAGUCCGACGAUCGAUGUGAGAAUUGAACGAGAUGCACAAGAAAUGGCUGAUAGUUUAGGAGUUAGAAUUUUUAGUGCAGAAAUUAUUUAUCAUUUAUUUGAUGCCUUUACAAAAUAUAGACAAGACUACAAGCAACAGAGGAUUGAGCAUCA
0
3) chr9:5123879:5124511:-|three_prime_utr|ENSG00000120210|control|control|control (ssRNA) RNA: GGGAGUUCUACAGUCCGACGAUCCUGGUAAAUUGGAUUGCCAUAUGCAGAAGAAUGAAACUGGACCCAUAUUUAUCACCAUAUAGAAAAAUUAACUCGAUCGAUUACAGACUUAAAUGUAAGAUCUGAAACUAGAAAAAUACUCAACAGAGGAUUGAGCAUCA
0

Qu. Below 4 enrichment R on binding signal? Entry chr2:32224452:32224765:-|three_prime_utr|ENSG00000091106|control|control|control (ssRNA) RNA: GGGAGUUCUACAGUCCGACGAUCUCGUGUGAGCAGUGAUGGAUGGCUUGCCUUCAUGGGUGUAUUUGAGAAUCUUAAGCAAUUAGUGUUUUUUGACUUUAGUACUAAAGAAUUUCUACCUGAUCCAGCAUUAGUCAGAAAACUCAACAGAGGAUUGAGCAUCA
Ans. 1

Qu. Below 4 enrichment R on binding signal? Entry chr2:99394746:99394872:+|CDS|ENSG00000158417|unk|total|mutant (ssRNA) RNA: GGGAGUUCUACAGUCCGACGAUCGAUGUGAGAAUUGAACGAGAUGCACAAGAAAUGGCUGACCGUUCCGGAGUCCGAAUUUUCCGUGCAGAAAUUAUUUAUCAUUUAUUUGAUGCCUUUACAAAAUACCGACAAGACUACAAGCAACAGAGGAUUGAGCAUCA
Ans. 1

Qu. Below 4 enrichment R on binding signal? Entry chr5:72209348:72209524:+|3pUTR|ENSG00000131711|msi1_unk|total|mutant (ssRNA) RNA: GGGAGUUCUACAGUCCGACGAUCUUAUGUCUUAUAAUCCUGCAUCACUUCUAUCCUAUCCAGUCAUAUCUAAUGCCGAAAAUCCGUUUCCAGUGAAAGUAAUAUGCCGUGCUUUUAUGAUAUUUGUGUGCAAUAUCCCCUCUUCAACAGAGGAUUGAGCAUCA
Ans. 1

Qu. Below 4 enrichment R on binding signal? Entry chr7:152122106:152122213:+|3pUTR|ENSG00000178234|unk|FALSE|unique (ssRNA) RNA: GGGAGUUCUACAGUCCGACGAUCAGUGGUUUUUAUCUGAUCAGGAACUUGUCAUGAUUUCCUUUCUUAGACUUCAUAGGAGAUAGUGCUUUAAAAAAAAAAAAAACUUCUAUUAUUUGUUUAGUAUGUUGUAAGUAGAUCAUUCAACAGAGGAUUGAGCAUCA
Ans. 0
